studyTarget: recombinant CK2A1 (Homo sapiens, UniProt P68400)
Construct: purchased Invitrogen
Sequence (P68400 whole entry): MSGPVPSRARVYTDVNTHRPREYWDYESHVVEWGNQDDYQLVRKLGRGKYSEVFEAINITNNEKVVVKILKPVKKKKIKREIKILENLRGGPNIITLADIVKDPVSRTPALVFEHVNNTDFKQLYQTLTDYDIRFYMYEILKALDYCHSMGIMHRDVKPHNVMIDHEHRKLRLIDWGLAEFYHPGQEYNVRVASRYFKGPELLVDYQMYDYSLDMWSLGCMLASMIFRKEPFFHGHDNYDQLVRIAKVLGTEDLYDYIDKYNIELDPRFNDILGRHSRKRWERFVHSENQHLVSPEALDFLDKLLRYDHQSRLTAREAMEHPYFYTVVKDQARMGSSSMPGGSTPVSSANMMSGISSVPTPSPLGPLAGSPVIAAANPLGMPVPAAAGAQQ
assayExplanation: CK2 kinase assay (CK2A1), [γ-33P]ATP filter-binding
Type: biochemical
conditions: recombinant CK2A1 10 nM, ATP 25 μM, 10 μM peptide substrate, 30° C. 1 h
observedProperty: IC50 (nM)

Below, 2 molecules whose answers are already recorded.
> print(dat)
                                   molecule  valuereported
1  O=C(Nc1ccnc(Cl)c1)c1cnc2c(NC3CC3)cc(NC3CC[S+]([O-])CC3)nn12 (stereo not shown) [Example 572]            306
2  NCC(=O)N[C@H]1CC[C@H](Nc2cc(NC3CC3)c3ncc(C(=O)Nc4ccncc4F)n3n2)CC1 [Example 124]             31

(a) CC(C)CC(=O)N[C@H]1CC[C@H](Nc2cc(NC3CC3)c3ncc(C(=O)Nc4ccnc(Cl)c4)n3n2)CC1 [Example 164]
(b) O=C(Nc1ccnc(F)c1)c1cnc2c(NC3CC3)cc(N[C@H]3CC[C@H](N4CCOCC4)CC3)nn12 [Example 27]
Hi there! Just curious which has the higher IC50 between a and b . Output the label that corresponds to your choice.
b
